Values were extracted from patent US20260374782A1.

Entries annotated with measured inhibition at 20 µM
- target_entity: NKCC1 (Homo sapiens)
- Construct: endogenous in cells; host or cells: native HEK293 cells
- assay_text: NKCC1-mediated K+ influx (83Rb tracer uptake) in native HEK293 cells, hypertonic saline, 100 μM ouabain
- Type: cell-based
- test_parameters: HEK293; 20 μM; no drug = 1000, 20 μM bumetanide = 0; read-out: NKCC1 mediated flux inhibition at 20 μM (%)

{"columns": ["compound", "inhibition at 20 µM"],
 "data": [
  ["CCCCN=S(C)(=O)c1cc(C(=O)O)cc(NCCCC)c1Oc1ccccc1 (stereo not shown)", "≥ 75%"],
  ["CCCCNc1cc(C(=O)O)cc(S(=N)(=O)NCC2CCN(C(C)=O)CC2)c1Oc1ccccc1 (stereo not shown)", "≥ 75%"],
  ["CCCCNc1cc(C(=O)OC)cc(S(C)(=O)=NC)c1Oc1ccccc1 (stereo not shown)", "10 to 30%"],
  ["CCCCNc1cc(C(=O)NC)cc(S(=N)(=O)NCc2ccccc2)c1Oc1ccccc1 (stereo not shown)", "10 to 30%"]
]}

----------
Catalogue of inhibition at 20 µM values
- target_entity: NKCC1 (Homo sapiens, UniProt P55011)
- Construct: endogenous in cells; host or cells: native HEK293 cells
- Sequence (P55011 whole entry): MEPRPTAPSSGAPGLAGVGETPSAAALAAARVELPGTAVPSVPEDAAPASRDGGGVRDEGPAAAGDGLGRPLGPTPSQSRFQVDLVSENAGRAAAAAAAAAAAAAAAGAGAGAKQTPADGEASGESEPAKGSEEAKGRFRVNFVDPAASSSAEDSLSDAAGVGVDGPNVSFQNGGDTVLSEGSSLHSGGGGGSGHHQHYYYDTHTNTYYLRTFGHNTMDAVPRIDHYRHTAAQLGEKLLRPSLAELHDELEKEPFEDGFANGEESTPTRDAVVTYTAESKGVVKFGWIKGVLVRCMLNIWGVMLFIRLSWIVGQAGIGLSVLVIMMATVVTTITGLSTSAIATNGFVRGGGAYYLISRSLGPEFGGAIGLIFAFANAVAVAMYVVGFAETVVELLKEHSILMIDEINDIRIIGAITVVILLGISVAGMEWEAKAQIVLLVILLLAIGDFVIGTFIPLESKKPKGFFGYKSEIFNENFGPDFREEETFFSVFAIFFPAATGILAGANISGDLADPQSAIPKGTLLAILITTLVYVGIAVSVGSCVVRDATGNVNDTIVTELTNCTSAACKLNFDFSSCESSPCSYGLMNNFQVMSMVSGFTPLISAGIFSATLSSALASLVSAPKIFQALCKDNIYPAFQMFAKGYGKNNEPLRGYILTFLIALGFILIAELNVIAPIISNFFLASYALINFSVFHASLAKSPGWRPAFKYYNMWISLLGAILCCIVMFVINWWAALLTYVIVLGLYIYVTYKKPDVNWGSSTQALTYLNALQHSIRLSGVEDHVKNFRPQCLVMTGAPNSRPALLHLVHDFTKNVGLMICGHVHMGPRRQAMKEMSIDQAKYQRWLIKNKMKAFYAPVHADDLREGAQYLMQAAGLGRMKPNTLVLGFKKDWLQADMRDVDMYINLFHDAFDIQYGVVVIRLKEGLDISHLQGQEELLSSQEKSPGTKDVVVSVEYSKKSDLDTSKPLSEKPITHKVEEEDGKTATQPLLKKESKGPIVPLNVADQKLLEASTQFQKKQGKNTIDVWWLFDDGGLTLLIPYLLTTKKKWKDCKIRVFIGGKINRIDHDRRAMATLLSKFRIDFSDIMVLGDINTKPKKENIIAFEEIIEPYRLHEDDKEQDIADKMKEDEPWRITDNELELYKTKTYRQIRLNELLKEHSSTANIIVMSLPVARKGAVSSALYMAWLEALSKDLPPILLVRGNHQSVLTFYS
- assay_text: NKCC1-mediated K+ influx (83Rb tracer uptake) in native HEK293 cells, hypertonic saline, 100 μM ouabain
- Type: cell-based
- test_parameters: HEK293; 20 μM; no drug = 1000, 20 μM bumetanide = 0; read-out: NKCC1 mediated flux inhibition at 20 μM (%)
readout: inhibition at 20 µM

{"columns": ["compound", "readout", "measured_result"],
 "data": [
  ["CCCCNc1cc(C(=O)OC)cc(S(=N)(=O)Nc2ccccn2)c1Oc1ccccc1 (centres unmarked)", "inhibition at 20 µM", "30 to 50%"],
  ["CCCCNc1cc(C(=O)NC)cc(S(=N)(=O)NCC2CCOCC2)c1Oc1ccccc1 (centres unmarked)", "inhibition at 20 µM", "50 to 75%"],
  ["CCCCNc1cc(C(=O)OC)cc(S(=O)(=Nc2ccccc2)N2CCCCCC2)c1Oc1ccccc1 (centres unmarked)", "inhibition at 20 µM", "10 to 30%"],
  ["CCCCNc1cc(C(=O)O)cc(S(=N)(=O)NCc2nccs2)c1Oc1ccccc1 (centres unmarked)", "inhibition at 20 µM", "≥ 75%"],
  ["CCCCNc1cc(C(=O)O)cc(S(=N)(=O)Nc2cccc(OC(F)F)c2)c1Oc1ccccc1 (centres unmarked)", "inhibition at 20 µM", "≥ 75%"],
  ["CCCCNc1cc(C(=O)NCC(F)F)cc(S(=N)(=O)Nc2ccccc2)c1Oc1ccccc1 (centres unmarked)", "inhibition at 20 µM", "10 to 30%"],
  ["CCCCNc1cc(C(=O)O)cc(S(=N)(=O)NCc2cccc(Cl)c2)c1Oc1ccccc1 (centres unmarked)", "inhibition at 20 µM", "≥ 75%"],
  ["CCCCNc1cc(C(=O)OC)cc(S(=N)(=O)Nc2ccccc2)c1Oc1ccccc1 (centres unmarked)", "inhibition at 20 µM", "50 to 75%"]
]}

----------
- target_entity: NKCC1 (Homo sapiens)
- Construct: endogenous in cells; host or cells: native HEK293 cells
- assay_text: NKCC1-mediated K+ influx (83Rb tracer uptake) in native HEK293 cells, hypertonic saline, 100 μM ouabain
- Assay type: cell-based
- test_parameters: HEK293; 2 μM; no drug = 1000, 20 μM bumetanide = 0; read-out: NKCC1 mediated flux inhibition at 2 μM (%)

{"columns": ["compound", "target_entity", "inhibition at 2 µM"],
 "data": [
  ["CCCCNc1cc(C(=O)O)cc(S(=N)(=O)Nc2ccnnc2)c1Oc1ccccc1 (centres unmarked)", "NKCC1 (Homo sapiens)", "30 to 50%"],
  ["CCCCNc1cc(C(=O)OC)cc(S(=N)(=O)NCC2CCN(C(C)=O)CC2)c1Oc1ccccc1 (centres unmarked)", "NKCC1 (Homo sapiens)", "30 to 50%"],
  ["CCCCNc1cc(C(=O)NCC(F)(F)F)cc(S(=N)(=O)N2Cc3ccccc3C2)c1Oc1ccccc1 (centres unmarked)", "NKCC1 (Homo sapiens)", "50 to 75%"],
  ["CCCCNc1cc(C(=O)O)cc(S(=N)(=O)NCCc2cccc(Cl)c2)c1Oc1ccccc1 (centres unmarked)", "NKCC1 (Homo sapiens)", "10 to 30%"],
  ["CCCCNc1cc(C(=O)NC)cc(S(=N)(=O)Nc2ccccc2)c1Oc1ccccc1 (centres unmarked)", "NKCC1 (Homo sapiens)", "30 to 50%"],
  ["CCCCNc1cc(C(=O)O)cc(S(C)(=O)=NC)c1Oc1ccccc1 (centres unmarked)", "NKCC1 (Homo sapiens)", "30 to 50%"],
  ["CCCCNc1cc(-c2nnn[nH]2)cc(S(=O)(=O)Nc2ccccc2)c1Oc1ccccc1", "NKCC1 (Homo sapiens)", "30 to 50%"],
  ["CCCCNc1cc(C(=O)NCCOC)cc(S(=N)(=O)N2Cc3ccccc3C2)c1Oc1ccccc1 (centres unmarked)", "NKCC1 (Homo sapiens)", "30 to 50%"]
]}
